subject-of-test: Tissue-type plasminogen activator (Homo sapiens, UniProt P00750)
Sequence (P00750 whole entry): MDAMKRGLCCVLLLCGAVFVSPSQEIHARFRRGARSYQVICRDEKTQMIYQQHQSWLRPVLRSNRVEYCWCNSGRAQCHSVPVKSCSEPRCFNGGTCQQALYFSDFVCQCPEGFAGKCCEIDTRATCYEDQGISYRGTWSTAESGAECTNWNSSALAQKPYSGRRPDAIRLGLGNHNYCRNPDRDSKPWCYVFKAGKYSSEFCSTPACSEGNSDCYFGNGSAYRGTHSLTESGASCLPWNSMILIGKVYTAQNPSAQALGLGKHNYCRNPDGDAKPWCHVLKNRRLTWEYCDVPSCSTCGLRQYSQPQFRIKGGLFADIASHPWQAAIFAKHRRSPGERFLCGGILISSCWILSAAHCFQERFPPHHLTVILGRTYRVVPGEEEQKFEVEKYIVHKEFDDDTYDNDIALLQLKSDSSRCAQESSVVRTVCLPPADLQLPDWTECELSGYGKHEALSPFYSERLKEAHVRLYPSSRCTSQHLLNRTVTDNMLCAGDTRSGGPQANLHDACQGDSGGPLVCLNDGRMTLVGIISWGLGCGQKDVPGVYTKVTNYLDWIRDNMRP
value-type: Ki (µM)
Numeric only. Scale: µM

The following compounds have reported results that may help.
>>> test_result("N=C(N)Nc1ncc(Cl)cc1C#Cc1ccccc1")
65.9
>>> test_result("COc1ccc(/C=C/c2cc(Cl)cnc2N=C(N)N)cc1")
60.1
>>> test_result("N=C(N)Nc1ncc(Cl)cc1/C=C/C1CCCCC1")
71.5

Next item in the queue.
State the recorded Ki for this entry: N=C(N)Nc1ncc(Cl)cc1/C=C/c1ccccn1
258

====

subject-of-test: UniProt:P00747
Sequence (P00747 97-580 limits assumed): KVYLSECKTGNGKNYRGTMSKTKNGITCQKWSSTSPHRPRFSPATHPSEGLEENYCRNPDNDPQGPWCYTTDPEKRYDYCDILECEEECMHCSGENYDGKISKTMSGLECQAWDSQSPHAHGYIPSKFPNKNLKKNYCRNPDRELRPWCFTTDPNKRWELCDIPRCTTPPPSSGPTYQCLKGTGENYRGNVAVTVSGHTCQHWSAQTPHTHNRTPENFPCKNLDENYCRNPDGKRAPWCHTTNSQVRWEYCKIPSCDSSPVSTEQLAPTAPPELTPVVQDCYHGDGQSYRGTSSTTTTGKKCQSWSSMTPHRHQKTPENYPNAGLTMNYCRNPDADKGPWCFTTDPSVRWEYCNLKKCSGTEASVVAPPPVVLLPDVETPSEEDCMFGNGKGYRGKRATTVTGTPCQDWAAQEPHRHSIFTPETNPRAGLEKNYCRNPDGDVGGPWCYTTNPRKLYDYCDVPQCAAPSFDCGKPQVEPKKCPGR
Sequence (P00747 581-810 limits assumed): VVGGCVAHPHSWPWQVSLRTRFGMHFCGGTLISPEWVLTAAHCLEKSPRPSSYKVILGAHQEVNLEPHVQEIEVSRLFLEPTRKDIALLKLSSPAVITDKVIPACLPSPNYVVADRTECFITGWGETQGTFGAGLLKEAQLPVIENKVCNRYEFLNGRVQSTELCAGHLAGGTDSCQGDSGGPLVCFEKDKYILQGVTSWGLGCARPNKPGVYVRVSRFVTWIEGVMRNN
assay-overview: Ability to inhibit human plasmin using Chromozym-PL as substrate at concentration of 1 uM
value-type: Ki (µM)
Numeric only. Scale: µM

State the recorded Ki for this entry: N=C(N)Nc1ncc(Cl)cc1/C=C/C(=O)O
279

# credit: ChEMBL document CHEMBL1135370
